- Tested on: PC12 cells
- Method: Dopamine release from PC12 cells after dipeptide addition (LC-MS/MS of supernatant)
- Format: cell-based
- Experimental parameters: 3 wells, 1 mM dipeptide, 37° C., 6 hours, supernatant
Peptide text beside a SMILES is read from it.
Measured quantity: Dopamine concentration after stimulation, Mean ± Standard deviation (nM)
Please state the figure in nM; there is no need to write the unit.

What value of Dopamine concentration after stimulation, Mean ± Standard deviation on PC12 cells does N=C(N)NCCC[C@H](NC(=O)[C@@H](N)Cc1c[nH]c2ccccc12)C(=O)O [WR, tryptophanylarginine] (H-Trp-Arg-OH) have? 36.24

Would you kindly repeat that for N[C@@H](Cc1c[nH]c2ccccc12)C(=O)N[C@@H](Cc1c[nH]cn1)C(=O)O [WH, tryptophanylhistidine] (H-Trp-His-OH) ? 22.15

Would you kindly repeat that for N[C@@H](Cc1c[nH]c2ccccc12)C(=O)N[C@@H](Cc1ccccc1)C(=O)O [WF, tryptophanylphenylalanine] (H-Trp-Phe-OH) ? 19.56

Would you kindly repeat that for CSCC[C@H](NC(=O)[C@@H](N)Cc1c[nH]c2ccccc12)C(=O)O [WM, tryptophanylmethionine] (H-Trp-Met-OH) ? 24.57
